The origin of these recorded values is patent US10196363B2.

# test system: mouse RORγ (Mus musculus)
# Construct: mouse RORγ, from Ile251 to Lys516; expressed in transfected cells; host or cells: CHO cells (Chinese hamster ovary), transient co-transfection with pG5-Luc
# Sequence (P51450 251-516): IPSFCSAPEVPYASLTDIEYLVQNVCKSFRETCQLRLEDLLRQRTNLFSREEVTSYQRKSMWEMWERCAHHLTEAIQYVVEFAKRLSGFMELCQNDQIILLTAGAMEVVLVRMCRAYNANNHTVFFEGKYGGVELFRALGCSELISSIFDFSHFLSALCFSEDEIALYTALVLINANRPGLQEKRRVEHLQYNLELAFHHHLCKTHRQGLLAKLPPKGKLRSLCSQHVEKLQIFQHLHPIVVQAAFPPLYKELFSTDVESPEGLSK
# experiment description: In vitro assay of inhibitory effect against RORγ transcriptional activity (GAL4-mRORγ LBD luciferase reporter gene assay in CHO cells)
# Assay type: cell-based
# measurement parameters: GAL4-mRORγ LBD luciferase reporter, CHO cells; read-out: LUC EC50 mRORγ
# Description: In Vitro Assay of Inhibitory Effect Against RORγ Transcriptional Activity Inhibitory effect of a test article on transcriptional activity of RORγ was measured by means of the following reporter gene assay. […] RORγ transcriptional activity was detected as the intracellular luciferase activity using SteadyLite HTS Reporter Gene Assay System (Perkin Elmer). […] After the incubation at room temperature for 10 minutes, luminescence of each well was measured by a microplate reader. […]
readout label: EC50 (nM)

CC(C)C1=CN(CCC(=O)O)C(=O)N[C@@]1(C)c1ccc(CCC2(F)CCCC2)c(Cl)c1 [Example 301] ... 10
COCCN1C=C(c2cnn(C(C)(C)C(=O)O)c2)[C@](C)(c2ccc(CCC(C)(C)C)c(Cl)c2)NC1=O [Example 296] ... 4530
COCCC1=CN(C23CCC(C(=O)O)(C2)C3)C(=O)N[C@@]1(C)c1ccc([C@H]2C[C@@H](C(C)C)C2)c(Cl)c1 [Example 330] ... 14
CC(C)CCSc1ccc([C@]2(C)NC(=O)N(CCC(=O)O)C=C2C(C)C)cc1Cl [Example 218] ... 122

(A) CC(C)C1=CN([C@H]2CC[C@H](CC(=O)O)CC2)C(=O)N[C@@]1(C)c1ccc(CCC(C)(C)C)c(Cl)c1 [Example 262]
(B) CC(C)CCOc1ccc([C@]2(C)NC(=O)N(CCC(=O)O)C=C2CC(C)C)c(F)c1Cl [Example 202]
In: Given A and B , report the one with the higher recorded EC50. // respond with label for picked entry
Out: B
(B: 52 nM, A: 22 nM)
